Would you mind telling me the reported hemolysis at 60 µM of each entry?
Experiment: Cytotoxicity against human RBC assessed as hemolysis at 60 uM
Format: cell-based, Erythrocyte
Settings: red blood cells (RBC), read-out: Activity
Give bare numbers, in %.

Here's what some known entries look like.
| Chem smiles | Measured quantity | Units text | Value measured |
| --- | --- | --- | --- |
| CC(C)C[C@H](N)C(=O)O | hemolysis at 60 µM | % | 80 |
| C[C@H](N)C(=O)O | hemolysis at 60 µM | % | 1 |

# input for lookup
Prompt line: Report hemolysis at 60 µM, nothing else, for this molecule: "CC(C)[C@H](N)C(=O)O"
Response line: 10
